- Tested on: IGROV1 ovarian
- TEST NAME: NCI tumour cell line growth inhibition, 48 h
VALUE KIND: TGI

The cases that follow already have their TGI on record.
{"COMPOUND": "N#Cc1ccc(NC(=O)C(CC(=O)OCc2ccccc2)NC(=O)OCc2ccccc2)cc1 (configuration not stated)", "TGI": "> 100 µM"}
{"COMPOUND": "O=C(Nc1ccc(Cl)c(Cl)c1)NS(=O)(=O)c1cnccc1Oc1ccc(F)cc1", "TGI": "8.59 µM"}
{"COMPOUND": "O=S(=O)(NCCCNc1nccc(-c2c(-c3ccc(F)cc3)nc3sccn23)n1)c1ccc2ccccc2c1", "TGI": "> 100 µM"}
{"COMPOUND": "O=c1cc(N2CCCC2)[nH]c(=O)n1-c1ccccc1", "TGI": "> 100 µM"}
{"COMPOUND": "COc1cc2ccc1OCc1cccc(n1)COc1ccc(cc1OC)C=Nc1ccc(cc1)N=C2", "TGI": "> 100 µM"}
{"COMPOUND": "N#Cc1nc(NC(=O)c2ccccc2C(=O)O)c(C#N)[nH]1", "TGI": "> 100 µM"}
{"COMPOUND": "COC(=O)/C(C#N)=C(/NCCN)Nc1ccccc1", "TGI": "> 100 µM"}
{"COMPOUND": "Cn1c2ccccc2c(=O)c2c(O)cc3c(c21)C=CC1(CCCCC1)O3", "TGI": "> 10 µM"}

Query string: Give recorded TGI with IGROV1 ovarian for the following compound: [O-]/[N+](=C\c1ccccc1OC(=S)S)c1ccc(Cl)cc1
Result string: 30.7 µM

Query string: And what about the compound C#CCN(Cc1ccc2nc(OC)c(OC)nc2c1)c1cc(OC)c(OC)c(OC)c1 ?
Result string: > 69.6 µM

Query string: Follow-up item: COc1ccc(CN2CCC/C=C/CC(Cl)(Cl)C2=O)cc1
Result string: > 100 µM

Query string: Same question, Cc1nc(C(N)=S)sc1C(=O)/C=C/c1c(O)ccc2ccccc12 this time
Result string: > 100 µM

Query string: Next: O=c1c2cc(Br)ccc2nc(CCl)n1-c1ccc(O)c([N+](=O)[O-])c1
Result string: 51.6 µM

Query string: Queued: CCOP(=O)(/C=C\n1ccc(N)nc1=O)OCC
Result string: > 100 µM

###

- Test system: NCI-H460 lung
Reply using exactly one outcome from y (active), n (inactive)

Would you please look over these solved cases?
{"COMPOUND": "O=S(=O)(NCCCNc1nccc(-c2c(-c3ccc(F)cc3)nc3sccn23)n1)c1ccc2ccccc2c1", "ANSWER LABEL": "n"}
{"COMPOUND": "CC(C)(C)C(=O)[CH-]C(=O)C(C)(C)C.CC(C)(C)C(=O)[CH-]C(=O)C(C)(C)C.CN(C)c1ccc([O-])cc1.CN(C)c1ccc([O-])cc1.[Ti+4]", "ANSWER LABEL": "n"}
{"COMPOUND": "C[C@H]1CCCC(O)C(O)[C@@H]2C[C@H](O[Si](C)(C)C(C)(C)C)C[C@H]2[C@H](O[Si](C)(C)C(C)(C)C)C(O)C(O)C(=O)O1 (some centres undefined)", "ANSWER LABEL": "n"}

Now look at this one.
Query string: Assay result, entry CN1/C(=C\C=C\C2=[N+](C)c3ccccc3C2(C)C)C(C)(C)c2ccccc21 — outcome?
Result string: y
